# System: BRCA2 Knockout DLD-1 cells
# Experimental protocol: In vitro proliferation inhibition (CellTiter-Glo), BRCA2 Knockout DLD-1
# Format: cell-based
# Test parameters: Homo sapiens; DLD-1, colorectal cancer, BRCA2 deletion; 6-10 days culture
# Excerpt: […] Experimental data processing method: The luminescence signal value was used to calculate the inhibition rate. […]
Observation type: IC50 (nM)
Give bare numbers, in nM.

Record summary for CCc1cc2ncc(CN3CCN(c4ccc(C(=O)NC)nc4)CC3)cc2[nH]c1=O : reported IC50 = 2.6

Shift focus to the following entry.
Record summary for O=C(c1cc(Cc2n[nH]c(=O)c3ccccc23)ccc1F)N1CCN(C(=O)C2CC2)CC1 : reported IC50 = 160
